target: human LTBR on cells (human, UniProt P36941 31-435); assay: cell-based or functional assay
Observed Property: NFκB luc, 15000 ng/ml, with x linker (RLU)
Provide the reading as a plain figure in RLU.

Consider P1AE1873 (CBE11) (antibody, human IgG1, kappa, L234A L235A, V domains shown) VH: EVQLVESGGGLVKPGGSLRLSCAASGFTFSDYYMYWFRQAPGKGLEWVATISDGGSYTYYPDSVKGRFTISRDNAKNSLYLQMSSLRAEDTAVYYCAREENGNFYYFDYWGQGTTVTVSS VL: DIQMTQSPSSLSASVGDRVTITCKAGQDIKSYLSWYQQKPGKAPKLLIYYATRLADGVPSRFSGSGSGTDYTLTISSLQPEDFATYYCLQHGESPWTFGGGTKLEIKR . Its measured NFκB luc, 15000 ng/ml, with x linker is 68600

The binder identified as P1AE9459 (antibody, human IgG1, kappa, L234A L235A, V domains shown, human IgG1 PG LALA; from transgenic rabbit immunization) VH: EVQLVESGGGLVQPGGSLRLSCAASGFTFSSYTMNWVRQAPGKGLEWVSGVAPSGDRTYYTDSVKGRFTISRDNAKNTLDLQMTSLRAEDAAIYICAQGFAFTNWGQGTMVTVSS VL: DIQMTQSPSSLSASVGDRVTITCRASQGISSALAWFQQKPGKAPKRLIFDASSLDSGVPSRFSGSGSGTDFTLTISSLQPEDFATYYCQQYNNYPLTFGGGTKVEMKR registered its NFκB luc, 15000 ng/ml, with x linker at 50300

Note to self: NFκB luc, 15000 ng/ml, with x linker recorded for P1AF0079 (antibody, human IgG1, kappa, L234A L235A, V domains shown, human IgG1 PG LALA; from transgenic rabbit immunization; also called LTBR (0079)) VH: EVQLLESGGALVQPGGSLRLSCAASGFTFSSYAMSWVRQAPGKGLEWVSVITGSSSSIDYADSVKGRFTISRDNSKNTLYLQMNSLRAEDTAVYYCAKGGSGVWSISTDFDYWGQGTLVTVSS VL: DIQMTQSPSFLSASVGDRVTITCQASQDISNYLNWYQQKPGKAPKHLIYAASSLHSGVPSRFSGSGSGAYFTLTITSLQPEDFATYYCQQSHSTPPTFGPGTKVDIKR was 22500
